src = ChEMBL document CHEMBL4422614

System: SH-SY5Y
METHOD SUMMARY: Cytotoxicity against human SH-SY5Y cells assessed as effect on cell viability at 10 uM after 24 hrs by MTT assay
Type: cell-based
REPORTED METRIC: Activity

• COc1ccc(C(=O)Nc2ccc(O)c3ncccc23)cc1OC1CCCC1.Cl = Non-Toxic
• Cl.O=C(Nc1cc(Cl)c(O)c2ncccc12)c1ccc(OC(F)F)c(OCC2CC2)c1 = Toxic
• Cl.O=C(Nc1ccc(O)c2ncccc12)c1ccc(OC(F)F)c(OCC2CC2)c1 = Non-Toxic
• COc1ccc(C(=O)Nc2cc(Cl)c(O)c3ncccc23)cc1OC1CCCC1.Cl = Toxic

====

Measured K, listed per entry for reference.
METHOD SUMMARY: Drug metabolism in Sprague-Dawley rat liver microsomes assessed as metabolic rate up to 180 mins in presence of NADPH by UV-based LC-MS/MS analysis
Type: ADME, Microsome
COND: 3 h
Just the number in min⁻¹, nothing appended.

# annotated cases, reported K shown
- Cl.O=C(Nc1ccc(O)c2ncccc12)c1ccc(OC(F)F)c(OCC2CC2)c1: 0.00767
- Oc1c(I)cc(Cl)c2cccnc12 [CLIOQUINOL]: 0.0194
- C[C@]12CC[C@H]3[C@@H](CCC4=CC(=O)CC[C@@]43C)[C@@H]1CC[C@@H]2O [TESTOSTERONE]: 0.301
- COc1cc2c(cc1OC)C(=O)C(CC1CCN(Cc3ccccc3)CC1)C2 (stereo not given) [DONEPEZIL]: 0.00917

Switching to the query record.
Q: Value lookup for K; key = COc1ccc(C(=O)Nc2ccc(O)c3ncccc23)cc1OC1CCCC1.Cl
Result: 0.0134

====

Measured IC50, listed per entry for reference.
ASSAYED TARGET: UniProt:Q08499
Sequence (Q08499 whole entry, the tested form may be a part): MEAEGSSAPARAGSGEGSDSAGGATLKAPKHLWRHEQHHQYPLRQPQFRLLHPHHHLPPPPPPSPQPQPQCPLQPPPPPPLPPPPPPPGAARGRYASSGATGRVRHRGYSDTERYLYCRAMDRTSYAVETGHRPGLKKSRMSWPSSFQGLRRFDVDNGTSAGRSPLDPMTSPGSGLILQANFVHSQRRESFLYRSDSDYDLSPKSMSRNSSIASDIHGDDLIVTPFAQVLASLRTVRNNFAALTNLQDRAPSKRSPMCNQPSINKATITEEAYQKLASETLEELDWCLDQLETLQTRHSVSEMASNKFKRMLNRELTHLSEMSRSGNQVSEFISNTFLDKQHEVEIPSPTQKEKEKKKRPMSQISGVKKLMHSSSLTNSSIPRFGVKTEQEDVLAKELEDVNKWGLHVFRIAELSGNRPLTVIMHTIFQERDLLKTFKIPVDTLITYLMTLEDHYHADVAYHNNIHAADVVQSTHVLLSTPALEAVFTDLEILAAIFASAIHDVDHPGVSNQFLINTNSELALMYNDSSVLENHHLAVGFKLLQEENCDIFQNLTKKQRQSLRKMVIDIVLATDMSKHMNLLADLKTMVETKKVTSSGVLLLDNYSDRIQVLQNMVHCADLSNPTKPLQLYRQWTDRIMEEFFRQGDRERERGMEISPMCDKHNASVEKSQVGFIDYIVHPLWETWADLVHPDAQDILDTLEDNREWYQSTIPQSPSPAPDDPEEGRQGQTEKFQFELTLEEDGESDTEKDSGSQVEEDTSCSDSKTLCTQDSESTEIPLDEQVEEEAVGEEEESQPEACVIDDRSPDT
METHOD SUMMARY: Inhibition of human PDE4D2 (86 to 413 residues) catalytic domain using [3H]-cAMP as substrate after 15 mins by liquid scintillation counting method
Just the number in nM, nothing appended.

# annotated cases, reported IC50 shown
- COc1ccc(C(=O)Nc2ccc(O)c3ncccc23)cc1OC: 7630
- COc1ccc(NC(=O)c2ccc3cccc(O)c3n2)cc1OC1CCCC1: 4150
- Cl.O=C(Nc1ccc(O)c2ncccc12)c1ccc(OC(F)F)c(OCC2CC2)c1: 399
- COc1ccc(C(=O)Nc2ccc(O)c3ncccc23)cc1OC1CCCC1.Cl: 492
- COc1ccc(NC(=O)c2ccc3c(Cl)cc(Cl)c(O)c3n2)cc1OC: 8070

Q: Value lookup for IC50; key = Cl.O=C(Nc1cc(I)c(O)c2ncccc12)c1ccc(OC(F)F)c(OCC2CC2)c1
Result: 426

====

METHOD SUMMARY: in vitro
COND: Sprague-Dawley, rat, microsomes
Description: Half life in Sprague-Dawley rat liver microsomes in presence of NADPH by UV-based LC-MS/MS analysis
REPORTED METRIC: half-life (h)
Just the number in h, nothing appended.

Q: Value lookup for half-life; key = COc1cc2c(cc1OC)C(=O)C(CC1CCN(Cc3ccccc3)CC1)C2 (stereo unspecified)
Result: 1.26

====

Measured Papp at 10 h, 100 ug/ml, listed per entry for reference.
METHOD SUMMARY: in vitro
COND: PAMPA
Description: Effective permeability of the compound at 100 ug/ml after 10 hrs by BBB-PAMPA method
Just the number in nm/s, nothing appended.

* COc1ccc(C(=O)Nc2ccc3cccc(O)c3n2)cc1OC1CCCC1 | 164

Q: Value lookup for Papp at 10 h, 100 ug/ml; key = O=C(Nc1ccc2cccc(O)c2n1)c1ccc(OC(F)F)c(OCC2CC2)c1
Result: 158

Q: Value lookup for Papp at 10 h, 100 ug/ml; key = Oc1c(I)cc(Cl)c2cccnc12
Result: 52

Q: Value lookup for Papp at 10 h, 100 ug/ml; key = COc1ccc(C(=O)Nc2cc(I)c(O)c3ncccc23)cc1OC1CCCC1.Cl
Result: 58.6

Q: Value lookup for Papp at 10 h, 100 ug/ml; key = O=C(Nc1c(Cl)cncc1Cl)c1ccc(OC(F)F)c(OCC2CC2)c1
Result: 92.2

Q: Value lookup for Papp at 10 h, 100 ug/ml; key = Cl.O=C(Nc1ccc(O)c2ncccc12)c1ccc(OC(F)F)c(OCC2CC2)c1
Result: 129

Q: Value lookup for Papp at 10 h, 100 ug/ml; key = COc1ccc(C(=O)Nc2ccc(O)c3ncccc23)cc1OC1CCCC1.Cl
Result: 59

Q: Value lookup for Papp at 10 h, 100 ug/ml; key = COc1ccc(C2CNC(=O)C2)cc1OC1CCCC1 (centres undefined)
Result: 189

Q: Value lookup for Papp at 10 h, 100 ug/ml; key = Cl.O=C(Nc1cc(I)c(O)c2ncccc12)c1ccc(OC(F)F)c(OCC2CC2)c1
Result: 70.5
